Can you tell me Minimum effective dose, forced swim test in rats (potential antidepressant properties) for the items I'm about to list?
# System: Wistar rats
# test-protocol: Forced swim test (FST) in Wistar rats
# Assay type: in vivo, rat
# condition-summary: IP, 60 minutes before the test; Wistar rats
Give just the numeric value; mg/kg need not be written.

Data request, read-out Minimum effective dose, forced swim test in rats (potential antidepressant properties), for O=S(=O)(c1cccc(Cl)c1)n1ccc2c(N[C@H]3CCNC3)nc3ccccc3c21
10

Requested read-out: Minimum effective dose, forced swim test in rats (potential antidepressant properties). Entry: Nc1ccc(S(=O)(=O)n2ccc3c(N4CCNCC4)nc4ccccc4c32)cc1
0.1

Tell me the measured Minimum effective dose, forced swim test in rats (potential antidepressant properties) of O=S(=O)(c1cccc(F)c1)n1ccc2c(N3CCNCC3)nc3ccccc3c21 , please.
10

Please report the recorded Minimum effective dose, forced swim test in rats (potential antidepressant properties) for O=S(=O)(c1cccc(Cl)c1)n1ccc2c(N[C@@H]3CCNC3)nc3ccccc3c21 .
3

---

# target-entity: 5-HT6 receptor (Homo sapiens, UniProt P50406)
# Sequence (P50406 whole entry): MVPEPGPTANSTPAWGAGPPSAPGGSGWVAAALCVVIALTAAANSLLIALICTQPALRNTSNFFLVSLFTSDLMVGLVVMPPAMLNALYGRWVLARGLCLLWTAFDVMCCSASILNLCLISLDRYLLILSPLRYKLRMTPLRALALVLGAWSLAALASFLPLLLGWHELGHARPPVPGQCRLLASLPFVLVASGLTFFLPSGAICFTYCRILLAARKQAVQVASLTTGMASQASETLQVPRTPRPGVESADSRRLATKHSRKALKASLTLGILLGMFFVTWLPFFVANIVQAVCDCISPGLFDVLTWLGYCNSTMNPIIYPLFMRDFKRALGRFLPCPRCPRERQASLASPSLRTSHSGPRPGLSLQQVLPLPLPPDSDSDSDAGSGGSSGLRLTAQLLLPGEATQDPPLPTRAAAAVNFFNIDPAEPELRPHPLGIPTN
# test-protocol: Radioligand binding, 5-HT6 ([3H]-LSD displacement)
outcome-measure: pKi
In simple prose, pKi is minus the logarithm base ten of a concentration in moles per litre.

Please provide the recorded pKi for N#Cc1cccc(S(=O)(=O)n2ccc3c(N4CCNCC4)nc4ccccc4c32)c1 , tested on 5-HT6 receptor (Homo sapiens, UniProt P50406).
7.85

What pKi appears in the records for this compound with 5-HT6 receptor (Homo sapiens, UniProt P50406)? O=S(=O)(c1cccc(F)c1)n1ccc2c(NC3CCNC3)nc3ccccc3c21 (centres unmarked)
8.30

Item: Cc1ccc2sc(S(=O)(=O)n3ccc4c(NC5CCNC5)nc5ccccc5c43)cc2c1 (centres unmarked) Test system: 5-HT6 receptor (Homo sapiens, UniProt P50406) Read-out: pKi Value: ?
7.03

API: value(readout=pKi, system=5-HT6 receptor (Homo sapiens, UniProt P50406)) for record O=S(=O)(c1ccc(Cl)s1)n1ccc2c(N3CCNCC3)nc3ccccc3c21
8.10

Look up pKi with 5-HT6 receptor (Homo sapiens, UniProt P50406) for this compound: CC(C)(C)c1ccc(S(=O)(=O)n2ccc3c(N4CCNCC4)nc4ccccc4c32)cc1
7.39

Short answer please: pKi, 5-HT6 receptor (Homo sapiens, UniProt P50406), entry O=S(=O)(c1cccc(Cl)c1)n1ccc2c(N3CCOCC3)nc3ccccc3c21
6.80

GET /values?readout=pKi&system=5-HT6 receptor (Homo sapiens, UniProt P50406)&item= O=S(=O)(c1cccc2cccnc12)n1ccc2c(NC3CCNC3)nc3ccccc3c21 (centres unmarked)
8.40

Form entry - test system: 5-HT6 receptor (Homo sapiens, UniProt P50406); read-out: pKi; compound: O=S(=O)(c1cccc2ccccc12)n1ccc2c(NC3CCNC3)nc3ccccc3c21 (centres unmarked)
7.72

Param readout = pKi; param system = 5-HT6 receptor (Homo sapiens, UniProt P50406); param query = O=S(=O)(c1cccc2cccnc12)n1ccc2c(N3CCN(Cc4ccccc4)CC3)nc3ccccc3c21 ; response: value
7.18

Any idea what pKi came out for Cc1c(S(=O)(=O)n2ccc3c(N4CCNCC4)nc4ccccc4c32)sc2ccc(Cl)cc12 on 5-HT6 receptor (Homo sapiens, UniProt P50406)?
7.80

Item: CN(C)CCNc1nc2ccccc2c2c1ccn2S(=O)(=O)c1ccccc1 Test system: 5-HT6 receptor (Homo sapiens, UniProt P50406) Read-out: pKi Value: ?
8.00

Field: pKi (5-HT6 receptor (Homo sapiens, UniProt P50406)). Entry: O=S(=O)(c1ccccc1)n1ccc2c(N3CCN(Cc4ccccc4)CC3)nc3ccccc3c21
6.66

Provide value of pKi for this record tested with 5-HT6 receptor (Homo sapiens, UniProt P50406): CN1CCN(c2nc3ccccc3c3c2ccn3S(=O)(=O)c2cccc3ccccc23)CC1
7.44

Form: Entry = Cc1ccc2sc(S(=O)(=O)n3ccc4c(N5CCNCC5)nc5ccccc5c43)cc2c1 | System = 5-HT6 receptor (Homo sapiens, UniProt P50406) | pKi = ____
7.55
